assay: MultiTox-Fluor Cytotoxicity Assay - LYMP1-002 - Dead Cells (AID 960); conditions: LYMP1-002 lymphoblastoid cells, dead-cell protease fluorescence; series mostly up to 46.1 µM; note: nearly all actives have a fitted effect of over 60% in size
Inconclusive results are not listed. The source made the active and inactive calls. Calls come from the whole dose curve; as a rule, active = well fitted cell-killing curve with a large enough effect; inconclusive = small, poorly fitted or top-dose-only effect, or effect the other way; inactive = no such curve, though single readings can be large or run the other way.
Result category, one only: TRUE for active, FALSE for inactive

Worked examples, 6 compounds total:
{"compound": "O=C(O)COc1ccc(Cl)cc1Cl", "label class": "FALSE"}
{"compound": "C=CC(=O)OCC", "label class": "FALSE"}
{"compound": "C1CCC2CCCCC2C1 (stereo unspecified)", "label class": "FALSE"}
{"compound": "[O-][Br+2]([O-])O", "label class": "FALSE"}
{"compound": "Cc1ccccc1N", "label class": "FALSE"}
{"compound": "COc1ccc(C=O)cc1OC", "label class": "FALSE"}

Please indicate how the test categorized Clc1nc(Cl)nc(Nc2ccccc2Cl)n1 . FALSE

Item: CNC(=O)O/N=C/C(C)(C)SC FALSE

Field entry: Cc1ccc(O)c(C)c1 FALSE

Another: CCC[CH2][Sn]([Cl])([Cl])[Cl] FALSE

* * *

assay: Cell Viability - N2a (AID 540); conditions: N2a mouse neuroblastoma cell viability; at 92.2 µM (top of the series);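 note: cells exposed to compound for 40 h at 37 °C; plate controls were DMSO alone for no effect and tamoxifen control for full effect; nearly all actives have a fitted effect of over 45% in size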
Records with an inconclusive call do not appear.
recorded metric: activity change, negative = cytotoxicity (%)
Write it as a number; the unit % goes unstated.

Sample answers from the record:
{"molecule": "O=S1OCC2C(CO1)C1(Cl)C(Cl)=C(Cl)C2(Cl)C1(Cl)Cl (stereo not given)", "recorded metric": "activity change, negative = cytotoxicity", "display unit": "%", "measured number": -80.3}
{"molecule": "Clc1cccc(C(Cl)(Cl)Cl)n1", "recorded metric": "activity change, negative = cytotoxicity", "display unit": "%", "measured number": -3.54}
{"molecule": "CCCCCCCC(=O)Cl", "recorded metric": "activity change, negative = cytotoxicity", "display unit": "%", "measured number": 1.92}

Quick one: activity change, negative = cytotoxicity of CCC[CH2][Sn]([Cl])([Cl])[Cl] ? 12.4

Would you mind doing C=CCOC(=O)c1ccccc1N as well? 1.61

* * *

experiment: Cell Viability - LYMP2-020 (AID 986); conditions: series mostly up to 92.2 µM;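 note: cells exposed to compound for 24 h at 37 °C; nearly all actives have a fitted effect of over 55% in size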
Inconclusive results are not listed. Calls of active or inactive are those of the source. Calls come from the whole dose curve; as a rule, active = well fitted cell-killing curve with a large enough effect; inconclusive = small, poorly fitted or top-dose-only effect; inactive = flat fitted curve, though single readings scatter.
// one of t = active, f = inactive, no free text

Worked cases, answers included:
{"molecule": "CCc1cccc(CC)c1N(COC)C(=O)CCl", "label class": "t"}
{"molecule": "COC1=CC(=O)OC(CCc2ccccc2)C1 (stereo unspecified)", "label class": "f"}
{"molecule": "Nc1ccc(Br)cc1", "label class": "f"}

// next entry
Returns: the outcome recorded for CCC[CH2][Sn]([Cl])([Cl])[Cl] in this assay. f

* * *

test: MultiTox-Fluor Cytotoxicity Assay - LYMP1-002 - Dead Cells (AID 960); settings: LYMP1-002 lymphoblastoid cells, dead-cell protease fluorescence; series mostly up to 46.1 µM; note: nearly all actives have a fitted effect of over 60% in size
Inconclusive results are not listed. Active and inactive are the calls of the source. The call rests on the fitted dose curve; in most records, active means well fitted cell-killing curve with a large enough effect; inconclusive means small, poorly fitted or top-dose-only effect, or effect the other way; inactive means no such curve, though single readings can be large or run the other way.
Classes to choose from: 1 for active, 0 for inactive

Solved cases below.
{"smiles text": "COc1cc(/C=C/C(=O)CC(=O)/C=C/c2ccc(O)c(OC)c2)ccc1O", "label class": 1}
{"smiles text": "Nc1ccc(Br)cc1", "label class": 0}
{"smiles text": "COC(=O)NC(=S)Nc1ccccc1NC(=S)NC(=O)OC", "label class": 0}
{"smiles text": "Nc1c(Cl)c(Cl)nc(C(=O)O)c1Cl", "label class": 0}
{"smiles text": "c1ccc2c(c1)CCCC2", "label class": 0}

Continue with the compound presented below.
# outcome recorded in this test, key = O=NN(CCO)CCO 0
